species on record: Rattus norvegicus; test: DrugMatrix - Regimen: Daily Repeat; assay type: toxicity, organism-based, Sprague-Dawley; parameters: regimen Daily Repeat, gender Male, age 6-8 weeks; conditions: in vivo, po, 0 mg/kg, 72 h, tissue Plasma, route oral GAVAGE, dose level Control, time 3 day, vehicle .5 % CMC
molecules and their reported ALANINE AMINOTRANSFERASE
Provide only the numeric value, understood in u/L.

Take a look at these entries with their results.
[
  {
    "MOLECULE": "CC(=O)O[C@]1(C(C)=O)CC[C@H]2[C@@H]3C=C(Cl)C4=CC(=O)[C@@H]5C[C@@H]5[C@]4(C)[C@H]3CC[C@@]21C [CYPROTERONE ACETATE]",
    "MEASURED": 55
  },
  {
    "MOLECULE": "CC(C(=O)O)c1ccc(-c2ccccc2)c(F)c1 (configuration not stated)",
    "MEASURED": 43.83
  },
  {
    "MOLECULE": "CN1C(=O)CN=C(c2ccccc2)c2cc(Cl)ccc21",
    "MEASURED": 49.17
  },
  {
    "MOLECULE": "COc1ccccc1OCC(O)COC(N)=O (configuration not stated)",
    "MEASURED": 49.67
  },
  {
    "MOLECULE": "CCOC(=O)[C@H](CCc1ccccc1)N[C@@H](C)C(=O)N1Cc2ccccc2C[C@H]1C(=O)O",
    "MEASURED": 55
  }
]

Query: Identify measured ALANINE AMINOTRANSFERASE corresponding to CCCCC1C(=O)N(c2ccccc2)N(c2ccccc2)C1=O
Result: 57.17

Query: Identify measured ALANINE AMINOTRANSFERASE corresponding to COc1ccc(/C=C/C(=O)Nc2ccccc2C(=O)O)cc1OC
Result: 43.83

---

organism: Rattus norvegicus; experiment: DrugMatrix - Regimen: Daily Repeat; format: toxicity, organism-based, Sprague-Dawley; set-up: regimen Daily Repeat, gender Male, age 6-8 weeks; details: in vivo, po, 0 mg/kg, 72 h, tissue Plasma, route oral GAVAGE, dose level Control, time 3 day, vehicle 100 % WATER
READOUT_LABEL: ASPARTATE AMINOTRANSFERASE (u/L)
Provide only the numeric value, understood in u/L.

Take a look at these entries with their results.
[
  {
    "MOLECULE": "Nc1ccc(S(=O)(=O)Nc2nccs2)cc1",
    "ASPARTATE AMINOTRANSFERASE [u/L]": 87.5
  },
  {
    "MOLECULE": "CC[C@H]1OC(=O)[C@H](C)[C@@H](O[C@H]2C[C@@](C)(OC)[C@@H](O)[C@H](C)O2)[C@H](C)[C@@H](O[C@@H]2O[C@H](C)C[C@H](N(C)C)[C@H]2O)[C@](C)(OC)C[C@@H](C)C(=O)[C@H](C)[C@@H](O)[C@]1(C)O",
    "ASPARTATE AMINOTRANSFERASE [u/L]": 74.5
  },
  {
    "MOLECULE": "OCCO",
    "ASPARTATE AMINOTRANSFERASE [u/L]": 82.17
  },
  {
    "MOLECULE": "CCOC(N)=O",
    "ASPARTATE AMINOTRANSFERASE [u/L]": 77.33
  }
]

Kindly consider the entry below.
Query: Identify measured ASPARTATE AMINOTRANSFERASE corresponding to CN1C2CCCC1CC(NC(=O)c1nn(C)c3ccccc13)C2 (stereo not given)
Result: 87.5
